molecular target: human cathepsin L (Homo sapiens); construct: purchased R&D Systems; assay: cathepsin L assay; format: biochemical; conditions: 10 pM human cathepsin L, Z-FR-AMC 2 μM, class symbols
Sequence (P07711 114-333): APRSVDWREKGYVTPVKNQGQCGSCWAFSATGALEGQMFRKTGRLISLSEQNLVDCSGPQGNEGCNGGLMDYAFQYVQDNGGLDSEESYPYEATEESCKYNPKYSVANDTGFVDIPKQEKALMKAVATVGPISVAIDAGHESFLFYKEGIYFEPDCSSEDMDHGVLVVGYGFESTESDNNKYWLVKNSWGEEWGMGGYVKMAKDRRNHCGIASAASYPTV
measured.quantity: IC50

These recorded examples may help you get a feel for the data.
molecule	endpoint.result
COc1cccc2[nH]c(C(=O)N3CC4(CC4)C[C@H]3C(=O)N[C@@H](C[C@@H]3CCNC3=O)C(=O)CO)cc12	≥ 10 µM
COc1cc(Cl)c(Cl)c2[nH]c(C(=O)N3C[C@@H]4CCC[C@@H]4[C@H]3C(=O)N[C@@H](C[C@@H]3CCNC3=O)C(=O)CO)cc12	≥ 10 µM

Dear colleague, please send me the reported IC50 for N#C[C@H](C[C@@H]1CCNC1=O)NC(=O)[C@@H]1[C@H]2CCC[C@H]2CN1C(=O)c1cc2c(Cl)ccc(C(F)(F)F)c2[nH]1 when you can.
≥ 10 µM

Give IC50 for COc1cccc2[nH]c(C(=O)N3C[C@]4(C[C@H]3C(=O)NC(C[C@@H]3CCCNC3=O)C(=O)C(=O)NCc3ccccc3)CC4(F)F)cc12 (stereo partly drawn)
0.1 to 1 µM

Could you please provide reported IC50 for COc1cccc2[nH]c(C(=O)N3C[C@@H]4CCC[C@@H]4[C@H]3C(=O)N[C@@H](CC3CC(C)(C)NC3=O)C(=O)COCc3ccccc3)cc12 (relative stereo) ? Thanks!
≥ 10 µM

---

target: 3CLpro (Severe acute respiratory syndrome coronavirus 2, UniProt P0DTD1); experiment: SARS-CoV-2 3CLpro protease assay (duplex, SAMDI-MS); assay type: biochemical; design: For the duplex assay, 3CLpro and HRV3C was added; settings: 3CLpro, 30 mins preincubation, class symbols; read-out: SARS-Cov-2 IC50
pIC50: −log10 of the molar value.
measured.quantity: pIC50

A selection of reference data follows.
                                   molecule  endpoint_result
0  O=C1NCC[C@H]1C[C@H](NC(=O)[C@@H]1[C@H]2CCC[C@H]2CN1C(=O)c1cc2c(Cl)cc(-c3ccccc3)cc2[nH]1)C(=O)CO           > 7.70
1  O=C1NCC[C@H]1C[C@H](NC(=O)[C@@H]1[C@H]2CCC[C@H]2CN1C(=O)c1cc2c3c(ccc2[nH]1)CCO3)C(=O)CO     6.70 to 7.70
2  COc1cccc2[nH]c(C(=O)N3Cc4ccccc4C[C@H]3C(=O)N[C@@H](C[C@@H]3CCNC3=O)C(=O)COCc3ccccc3)cc12     4.70 to 5.70
3  O=C(NC1CC1)C(=O)[C@H](C[C@@H]1CCNC1=O)NC(=O)[C@@H]1CC2(CCN1C(=O)c1cc3c(Cl)cccc3[nH]1)CC2           > 7.70
4  O=C1NCC[C@H]1C[C@H](NC(=O)[C@@H]1[C@H]2CCC[C@H]2CN1C(=O)c1cc2c(=O)[nH]ccc2[nH]1)C(=O)CO     6.70 to 7.70

Give reported pIC50 for COc1cccc2[nH]c(C(=O)N3Cc4ccccc4C[C@H]3C(=O)N[C@@H](C[C@@H]3CCNC3=O)C(=O)C(=O)NC3CC3)cc12 (3CLpro (Severe acute respiratory syndrome coronavirus 2, UniProt P0DTD1))
5.70 to 6.70

Check 3CLpro (Severe acute respiratory syndrome coronavirus 2, UniProt P0DTD1) data and give pIC50 for COc1cccc2[nH]c(C(=O)N3CC4(CC4)C[C@H]3C(=O)N[C@@H](C[C@@H]3CCCNC3=O)C(=O)CO)cc12 .
6.70 to 7.70

For 3CLpro (Severe acute respiratory syndrome coronavirus 2, UniProt P0DTD1), give the measured pIC50 of the entry CC(C)[C@@H]1C[C@@H](C(=O)NC(C[C@@H]2CCNC2=O)C(=O)C(=O)NCc2ccccc2)N(C(=O)c2cc3ccccc3[nH]2)C1 (stereo partly drawn)
5.70 to 6.70

Consider the molecule O=C1NCC[C@H]1C[C@H](NC(=O)[C@@H]1[C@H]2CCC[C@H]2CN1C(=O)c1cc(S(=O)(=O)c2ccccc2)c[nH]1)C(=O)CO tested on 3CLpro (Severe acute respiratory syndrome coronavirus 2, UniProt P0DTD1); state its pIC50.
6.70 to 7.70

Please tell me the measured pIC50 for O=C1NCC[C@H]1C[C@H](NC(=O)[C@@H]1[C@H]2[C@H]3CC[C@H](C3)[C@H]2CN1C(=O)c1cc2c(Cl)cc(Cl)cc2[nH]1)C(=O)CO ; system: 3CLpro (Severe acute respiratory syndrome coronavirus 2, UniProt P0DTD1).
6.70 to 7.70

Specify pIC50 for O=C1NCC[C@H]1C[C@H](NC(=O)[C@@H]1[C@H]2CCC[C@H]2CN1C(=O)c1cc2ccsc2[nH]1)C(=O)CO , system 3CLpro (Severe acute respiratory syndrome coronavirus 2, UniProt P0DTD1).
6.70 to 7.70

Quote pIC50 with test system 3CLpro (Severe acute respiratory syndrome coronavirus 2, UniProt P0DTD1) for COc1cccc2[nH]c(C(=O)N3C[C@]4(C[C@H]3C(=O)NC(C[C@@H]3CCCNC3=O)C(=O)C(=O)NC3CC3)CC4(F)F)cc12 (stereo partly drawn)
6.70 to 7.70
